Experiment: LAP4-GFP expression modulators in yeast, confirmation, cell-based, cherry picks, flow cytometry, mother/daughter gates (AID 2271);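 note: ratio of sample to DMSO plate mean so 100% equals DMSO level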
Conditions: S. cerevisiae LAP4-GFP strain, 3 h, at 10 µM, active compounds read high, 100 means same as DMSO control
READOUT_LABEL: GFP response relative to DMSO (%)
Supply the numeric figure in %, leaving out any unit text.

Record excerpt, results attached:
O=S(=O)(c1ccc(-c2ccccc2)cc1)N1CCOCC1 ... 97.7
O=C(Nc1c(-c2ccccc2)nc2ccccn12)c1ccco1 ... 99.2
CC1CC2=C(CC1/C=N/NC(N)=S)C(C)(C)CCC2 (stereo unspecified) ... 110
Cc1ccc(C(=O)OCC(=O)Nc2ccccc2Sc2ccccc2)cc1C ... 96.1

CC(=O)Nc1cccc(C(=O)/C=C/c2ccc(C)cc2)c1 has a reported GFP response relative to DMSO of 117

Cc1ccc(Nc2c(-c3ccccn3)nc3ccc(C)cn23)cc1 has a reported GFP response relative to DMSO of 148

CCCC(=O)c1ccc(N2CCN(C(=O)c3ccc(Br)cc3)CC2)c(F)c1 has a reported GFP response relative to DMSO of 102

COc1cc(/C=C/C(=O)c2c(O)ccc3c(C)cc(=O)oc23)ccc1O has a reported GFP response relative to DMSO of 124

CCc1ccc2c(c1)C1(NN=C(c3cccc4ccccc34)S1)C(=O)N2 (stereo unspecified) has a reported GFP response relative to DMSO of 111

O=C(Cc1ccc(Cl)cc1)NNC(=S)NC(=O)c1cccs1 has a reported GFP response relative to DMSO of 150

CCCc1[nH]nc2c1C(c1cccnc1)C(C#N)=C(N)O2 (stereo unspecified) has a reported GFP response relative to DMSO of 99.2
